Test system: Hep3B hepatocellular carcinoma cell line
PROCEDURE DETAILS: MTS cell viability assay (NCI-60 methodology), GI50/LC50, Hep3B
Assay type: cell-based
RECORDED CONDITIONS: Homo sapiens, 48 h, Hep3B cells, 2 days incubation with compound
OUTCOME MEASURE: GI50 (nM)
Kindly provide the numeric value in nM only, without the unit symbol.

Please give measured GI50 of the following entry: O=C(Nc1nc(-c2ccc(Br)cc2)c(Oc2ccccc2C(F)(F)F)s1)c1ccc([N+](=O)[O-])s1 [Compound 5-19] 1790

Please give measured GI50 of the following entry: CCC(C)(C)c1ccc(Oc2sc(NC(=O)c3ccc([N+](=O)[O-])s3)nc2-c2ccc(C(F)(F)F)cc2)cc1 [Compound 5-71] 630

Please give measured GI50 of the following entry: O=C(Nc1nc(-c2ccc(Br)cc2)c(Oc2cccc(C(F)(F)F)c2)s1)c1ccc([N+](=O)[O-])s1 [Compound 5-11] 6540

Please give measured GI50 of the following entry: CCOc1cnccc1-c1nnc(NC(=O)Cc2ccc3nc(N)sc3c2)s1 [Compound 1-25] 170

Please give measured GI50 of the following entry: O=C(Nc1nc(-c2ccc(F)cc2)c(Oc2ccccc2OC(F)(F)F)s1)c1ccc([N+](=O)[O-])s1 [Compound 5-32] 460

Please give measured GI50 of the following entry: CC(C)(C)c1ccc(-c2nc(NC(=O)c3ccc([N+](=O)[O-])s3)sc2Oc2ccc(C(F)(F)F)cc2)cc1 [Compound 5-74] 1160

Please give measured GI50 of the following entry: CCCCOc1ccc(Oc2sc(NC(=O)c3ccc([N+](=O)[O-])s3)nc2-c2ccc(F)cc2)cc1 [Compound 5-66] 520
